System: MDCK-MDR1 cells
Experiment: MDR1-MDCK bi-directional permeability and efflux
Details: MDCK-MDR1 cells; A2B; 10 µM
Recorded P app (A2B) values for a group of compounds are listed next.

Examples with their reported P app (A2B) follow.
Compound: Cc1ccncc1-c1cc2c(Nc3ccc(S(C)(=O)=O)cc3)ncnc2s1 [Compound 14]
Reported property: P app (A2B)
Endpoint result: 2.45 10^−6 cm s^−1
--
Compound: CSc1ccc(Nc2ncnc3cc(-c4cccnc4Cl)sc23)cc1 [Compound 39]
Reported property: P app (A2B)
Endpoint result: 12.9 10^−6 cm s^−1
--
Compound: Cc1ncccc1-c1cc2ncnc(Nc3ccc(N4CCCC4=O)cc3)c2s1 [Compound 42]
Reported property: P app (A2B)
Endpoint result: 3.15 10^−6 cm s^−1
--
Compound: CS(=O)(=O)c1ccc(Nc2ncnc3sc(-c4ccccc4)cc23)cc1 [Compound 5]
Reported property: P app (A2B)
Endpoint result: 6.23 10^−6 cm s^−1
--
Compound: CS(=O)(=O)c1ccc(Nc2ncnc3scc(Cl)c23)cc1 [Compound 32]
Reported property: P app (A2B)
Endpoint result: 14.2 10^−6 cm s^−1

### Prompt Read the entry Cn1cc(-c2cc3c(Nc4ccc(S(C)(=O)=O)cc4)ncnc3s2)cn1 [Compound 8] and write its reported P app (A2B).
### Response 2.88 10^−6 cm s^−1

### Prompt Fill in reported P app (A2B) for this entry: Cc1ncccc1-c1cc2c(Nc3ccc(S(C)(=O)=O)cc3)ncnc2s1 [Compound 17]
### Response 1.33 10^−6 cm s^−1

====

Target: PI5P4Kα (Homo sapiens, UniProt P48426)
Sequence (P48426 1-406): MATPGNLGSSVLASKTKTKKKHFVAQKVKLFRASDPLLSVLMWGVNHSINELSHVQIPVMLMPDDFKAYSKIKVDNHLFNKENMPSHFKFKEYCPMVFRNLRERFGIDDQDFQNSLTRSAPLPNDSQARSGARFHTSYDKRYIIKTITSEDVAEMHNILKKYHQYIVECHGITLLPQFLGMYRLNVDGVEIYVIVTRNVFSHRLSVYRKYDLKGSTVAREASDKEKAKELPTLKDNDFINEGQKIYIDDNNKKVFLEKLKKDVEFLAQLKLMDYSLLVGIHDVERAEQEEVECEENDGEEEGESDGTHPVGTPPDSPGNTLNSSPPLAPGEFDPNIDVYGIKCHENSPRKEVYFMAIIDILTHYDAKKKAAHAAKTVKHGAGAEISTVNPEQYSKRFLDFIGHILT
Details: Table S1, two decimals; asterisk not explained
Reported property: ADP-Glo pIC50 PI5P4Kα
Would you mind answering with just the numeric figure?

### Prompt Return value of ADP-Glo pIC50 PI5P4Kα for input Cc1ncccc1-c1cc2ncnc(Nc3ccc(C4CC4)cc3)c2s1 [Compound 38] , no commentary.
### Response 7.01

### Prompt Return ADP-Glo pIC50 PI5P4Kα for the following compound: Cc1ccc(Nc2ncnc3sc(-c4cccnc4C)cc23)cc1C [Compound 18]
### Response 6.48

### Prompt Identify ADP-Glo pIC50 PI5P4Kα associated with the compound Cc1ccc(Nc2ncnc3sc(-c4cccnc4C)cc23)cc1 [Compound 22]
### Response 6.22

### Prompt Output ADP-Glo pIC50 PI5P4Kα of CSc1ccc(Nc2ncnc3sc(-c4c(C)noc4C)cc23)cc1 [Compound 30]
### Response 6.81

====

# Fold-selectivity (α IC50/γ IC50) per entry
System: PI5P4Kγ+
Settings: ratio PI5P4Kα IC50 / PI5P4Kγ+ IC50, ADP-Glo

Reference set (3 entries):
Molecule: CSc1ccc(Nc2ncnc3sc(-c4cccnc4Cl)cc23)cc1
Study target: PI5P4Kγ+
Fold-selectivity (α IC50/γ IC50): 12
--
Molecule: COc1ccc(-n2ncc3c(Nc4ccc(OC)c(Cl)c4)ncnc32)cc1 [Compound 4, reference compound]
Study target: PI5P4Kγ+
Fold-selectivity (α IC50/γ IC50): 0.032
--
Molecule: CS(=O)(=O)c1ccc(Nc2ncnc3sc(-c4cn[nH]c4)cc23)cc1
Study target: PI5P4Kγ+
Fold-selectivity (α IC50/γ IC50): 79

### Prompt Supply measured Fold-selectivity (α IC50/γ IC50) of "Cc1ncccc1-c1cc2ncnc(Nc3ccc(C4CC4)cc3)c2s1" in your reply.
### Response 1.9

### Prompt Please indicate Fold-selectivity (α IC50/γ IC50) recorded for "Cc1ccncc1-c1cc2c(Nc3ccc(S(C)(=O)=O)cc3)ncnc2s1"
### Response 79

### Prompt Respond only with Fold-selectivity (α IC50/γ IC50) recorded for "COc1ccc(Nc2ncnc3sc(-c4cccnc4C)cc23)cc1"
### Response 0.69

### Prompt Identify measured Fold-selectivity (α IC50/γ IC50) corresponding to "Cc1ccc(Nc2ncnc3sc(-c4cccnc4C)cc23)c(C)c1"
### Response 0.79

### Prompt Specify Fold-selectivity (α IC50/γ IC50) for "COc1ccc(Nc2ncnc3sc(-c4ccncc4C)cc23)cc1" and stop.
### Response 1.1

### Prompt Answer with reported Fold-selectivity (α IC50/γ IC50) of "CS(=O)(=O)c1ccc(Nc2ncnc3sc(-c4ccnc(Cl)c4)cc23)cc1"
### Response 130

====

Biological target: PI5P4Kγ+ (Homo sapiens, UniProt Q8TBX8, D138G/D197E/E133P/E135D/E153T/E196G/G139A/N195G/S132L/S134N)
Sequence (Q8TBX8 with tags, fused parts or gaps with the stated changes): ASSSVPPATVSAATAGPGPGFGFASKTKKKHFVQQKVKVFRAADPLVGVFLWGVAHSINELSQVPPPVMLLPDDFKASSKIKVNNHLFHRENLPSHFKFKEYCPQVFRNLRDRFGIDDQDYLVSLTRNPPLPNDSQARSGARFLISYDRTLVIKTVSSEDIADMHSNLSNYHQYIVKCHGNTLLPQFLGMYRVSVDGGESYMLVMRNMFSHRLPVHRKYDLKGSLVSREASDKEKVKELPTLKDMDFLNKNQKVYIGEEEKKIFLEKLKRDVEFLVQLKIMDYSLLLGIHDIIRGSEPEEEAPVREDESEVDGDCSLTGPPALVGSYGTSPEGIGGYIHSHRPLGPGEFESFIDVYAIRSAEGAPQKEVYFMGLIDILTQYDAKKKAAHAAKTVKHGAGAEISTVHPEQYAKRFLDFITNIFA
Test: biochemical
Conditions: PI5P4Kγ+ pIC50, ADP-Glo; footnote a: inconsistent replicates, value shown is upper limit
Listed below: IC50 values for each entry.
Answer with the figure and its unit, nothing else.

Chemical structure: CS(=O)(=O)c1ccc(Nc2ncnc3scc(C4CC4)c23)cc1
Endpoint result: 100 nM
//
Chemical structure: Cn1cc(-c2cc3c(Nc4ccc(S(C)(=O)=O)cc4)ncnc3s2)cn1
Endpoint result: 39.8 nM

### Prompt Look up and report measured IC50 for this entry: "Cc1sc2ncnc(Nc3ccc(S(C)(=O)=O)cc3)c2c1C"
### Response 200 nM

### Prompt Name the recorded IC50 of the item "Cc1cccc(Nc2ncnc3sc(-c4cccnc4C)cc23)c1" in your answer.
### Response 5010 nM

### Prompt Name the recorded IC50 of the item "CS(=O)(=O)c1ccc(Nc2ncnc3cc(-c4cccnc4Cl)sc23)cc1" in your answer.
### Response 12.6 nM

====

The following molecules are listed with their measured pIC50 values.
Biological target: PI5P4Kγ+ (Homo sapiens, UniProt Q8TBX8, D138G/D197E/E133P/E135D/E153T/E196G/G139A/N195G/S132L/S134N)
Assay: biochemical
Settings: ADP-Glo pIC50 PI5P4Kγ+, Table S1, two decimals; asterisk not explained
When answering, recall that pIC50 equals minus log10 of the concentration in mol/L, and write that number alone.

A selection of reference data follows.
Chemical structure: Cc1cc(Nc2ncnc3sc(-c4cccnc4Cl)cc23)ccc1Cl
Endpoint result: 6.41
--
Chemical structure: Cc1ccc(Nc2ncnc3sc(-c4cccnc4C)cc23)c(C)c1
Endpoint result: 5.36
--
Chemical structure: COc1cnccc1-c1cc2ncnc(Nc3ccc(SC)cc3)c2s1
Endpoint result: 7.27
--
Chemical structure: CSc1ccc(Nc2ncnc3sc(C)cc23)cc1
Endpoint result: 6.75
--
Chemical structure: CSc1ccc(Nc2ncnc3cc(-c4cccnc4Cl)sc23)cc1
Endpoint result: 8.06

### Prompt Entry "COc1cnccc1-c1cc2c(Nc3ccc(S(C)(=O)=O)cc3)ncnc2s1" needs its pIC50 filled in; supply it.
### Response 7.49

### Prompt Tell us which pIC50 value is on record for "CSc1ccc(Nc2ncnc3sc(-c4cccnc4C)cc23)cc1"
### Response 7.33

### Prompt For "CCc1ccc(Nc2ncnc3sc(-c4cccnc4C)cc23)cc1" , write its pIC50.
### Response 6.41

### Prompt Answer with the recorded pIC50 for the molecule listed here: "CSc1ccc(Nc2ncnc3sc(-c4cnoc4)cc23)cc1"
### Response 7.37

### Prompt Return the recorded pIC50 value; entry: "CSc1ccc(Nc2ncnc3sc(-c4ccncc4C)cc23)cc1"
### Response 7.71

### Prompt Give the value of pIC50 reported for the following: "Cc1ncccc1-c1cc2c(Nc3ccc(S(C)(=O)=O)cc3)ncnc2s1"
### Response 7.68

### Prompt Answer with the recorded pIC50 of "Cc1ncccc1-c1cc2ncnc(Nc3ccc4ncoc4c3)c2s1" only.
### Response 6.25

====

Tested on: MDR1 (P-gp)
Test: MDR1-MDCK bi-directional permeability and efflux
Details: dog, MDCK-MDR1
Recorded efflux ratio at 60 min, 10 µM for the following compounds
# answer = number (no unit)

### Prompt State its efflux ratio at 60 min, 10 µM: Cc1ccncc1-c1cc2c(Nc3ccc(S(C)(=O)=O)cc3)ncnc2s1 [Compound 14]
### Response 34.1

### Prompt Tell me measured efflux ratio at 60 min, 10 µM for CS(=O)(=O)c1ccc(Nc2ncnc3scc(Cl)c23)cc1 [Compound 32] please.
### Response 3.7

### Prompt Quick one: give measured efflux ratio at 60 min, 10 µM for Cc1ncccc1-c1cc2ncnc(Nc3ccc(C4CC4)cc3)c2s1 [Compound 38]
### Response 0.91
